System: Saccharomyces cerevisiae
experiment summary: protein stability index of tFT-peptide fusion (C-terminal peptide) (PSI (0-1 scale)); higher = more stable (slower turnover);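 note: PSI is a weighted mean of sequencing reads over stability bins, variants kept only with over 10 reads, mCherry proximal and sfGFP distal, peptide attached via GGGS linker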
condition: genetic background: wild type; temperature: 30 C
result type: protein stability index
Numbers only.

Need protein stability index for each of these sequences.
1. APPPLPSPRPAA
2. PPAPRVSPPPPP

Output:
0.699
0.712

---

System: Saccharomyces cerevisiae
experiment summary: protein stability index of tFT-peptide fusion (C-terminal peptide) (PSI (0-1 scale)); higher = more stable (slower turnover)
condition: genetic background: das1 deletion; temperature: 37 C
result type: protein stability index
Numbers only.

Use the examples below as a reference point.
# construct sequence, protein stability index
rows = [
    ("FFCSLIISRFLL", 0.62),
    ("LQSVAFERGGPD", 0.729),
    ("FLSPPPFLALLP", 0.763),
    ("VVRLRVWRLLKV", 0.425),
    ("AITLPMCPLLLR", 0.204),
    ("HCLLQDVPPTLH", 0.678),
]

Need protein stability index for each of these sequences.
1. PSTLVITVVITK
2. YYLVKCVYLRTT
3. WCGSWGVWMRLG
4. LLVVFSCFTFMF

Output:
1: 0.426; 2: 0.504; 3: 0.646; 4: 0.476

---

Test system: Saccharomyces cerevisiae
experiment summary: protein stability index of tFT-peptide fusion (C-terminal peptide) (PSI (0-1 scale)); higher = more stable (slower turnover)
condition: genetic background: doa10 deletion; temperature: 30 C
protein stability index of 0.3 or higher: yes. Under 0.3: no.

Worked examples follow.
# construct sequence, target entity, category label
rows = [
    ("FASFLFFCYIIF", "Saccharomyces cerevisiae", "no"),
    ("IYFFFFALHFPN", "Saccharomyces cerevisiae", "yes"),
    ("WGFSVRFVLSVF", "Saccharomyces cerevisiae", "no"),
    ("WWVVVRGGWCLC", "Saccharomyces cerevisiae", "no"),
    ("LLVLPFFSLSRF", "Saccharomyces cerevisiae", "yes"),
    ("IWIRLGSENTVI", "Saccharomyces cerevisiae", "yes"),
    ("VVWLFGVSWCWL", "Saccharomyces cerevisiae", "yes"),
    ("QVGRPRVGFSRR", "Saccharomyces cerevisiae", "yes"),
    ("RLMVHQHTIPVR", "Saccharomyces cerevisiae", "no"),
    ("RLELTRIMIVAI", "Saccharomyces cerevisiae", "no"),
]

Task: Assess whether reported protein stability index for DFVYFPPIPVSS sits at 0.3 or higher.
Output: no

Task: Assess whether reported protein stability index for RSWLCFIVFGLF sits at 0.3 or higher.
Output: no

Task: Assess whether reported protein stability index for CVLLRPGFLVLV sits at 0.3 or higher.
Output: no

Task: Assess whether reported protein stability index for RLVIFITRYLIS sits at 0.3 or higher.
Output: no

Task: Assess whether reported protein stability index for FVSAFVCLLCLV sits at 0.3 or higher.
Output: yes

Task: Assess whether reported protein stability index for LLVFWRLWWSLS sits at 0.3 or higher.
Output: no

---

System: Saccharomyces cerevisiae
experiment summary: protein stability index of tFT-peptide fusion (C-terminal peptide) (PSI (0-1 scale)); higher = more stable (slower turnover)
condition: genetic background: wild type; temperature: 30 C
protein stability index of 0.7 or higher: 1.0. Under 0.7: 0.0.

Worked examples follow.
# construct sequence, category label
data = [
    ("KKKKKKKQIKKK", 1.0),
    ("RTAGSARIESAL", 0.0),
    ("HAARFRLPASPC", 0.0),
    ("YGGAWGGVIHVC", 0.0),
    ("KEYKKKKKKIDK", 0.0),
    ("RVFTGLCRPFGV", 1.0),
    ("PCFACIAFVLFP", 0.0),
    ("TFSHRVICTGND", 1.0),
    ("VVRLRCSVGWCS", 0.0),
    ("SCYLLDFGCIWV", 0.0),
]

Task: Assess whether reported protein stability index for PKSGRAVMQGEG sits at 0.7 or higher.
Output: 0.0

Task: Assess whether reported protein stability index for PLSLSVPPAFFI sits at 0.7 or higher.
Output: 0.0
